Task for the reader: assign each of the following compounds its reported growth at 10 µM.
assay: Cytotoxicity against Homo sapiens (human) prostate cancer cells assessed as cell growth at 10^-5 M after 48 hr by SRB assay relative to control; assay type: functional; conditions: Cancer cell lines, read-out: Activity
Numbers only here, please. The scale is %.

response.value for "COc1ccc2nc(NC(=O)Nc3c(F)cccc3F)sc2c1" (field: growth at 10 µM) = 100

response.value for "COc1ccc(NC(=O)Nc2nc3ccc(OC(F)(F)F)cc3s2)cc1" (field: growth at 10 µM) = 95.3

response.value for "O=C(Nc1nc2ccc(OC(F)(F)F)cc2s1)Nc1c(F)cccc1F" (field: growth at 10 µM) = 83.8

response.value for "N#Cc1ccc(NC(=O)Nc2nc3ccc(OC(F)(F)F)cc3s2)cc1" (field: growth at 10 µM) = 13

response.value for "O=C(Nc1ccc(F)cc1)Nc1nc2ccc(OC(F)(F)F)cc2s1" (field: growth at 10 µM) = 12.4
